All values here come from paper PMC7409020.

- TARGET_OF_ASSAY: recombinant N-terminal His6-tagged human FABP3 (human)
- Sequence (P05413 2-133): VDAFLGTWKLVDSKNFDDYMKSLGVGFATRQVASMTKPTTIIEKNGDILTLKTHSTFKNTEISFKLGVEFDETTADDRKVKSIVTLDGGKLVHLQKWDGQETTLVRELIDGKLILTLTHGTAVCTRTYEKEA
- PROTOCOL: MST; Monolith NT.115; 20 nM NT-650-NHS-labelled FABP3, unlabelled peptides 500 µM to 0.0153 µM in two-fold dilutions; 25 °C; PBS with 0.05% Tween 20, pH 7.4; 40% MST power, 60% LED power; 1:1 fit; triplicates
pKd: −log10 of the molar value. Ends that are not written are not given here.
QUANTITY: pKd

- BINDER: "ACGLSGLGVAK-NH2 [A-CooP-K]"
  pKd: 7.15

[I] ACGLSGLAVA-NH2 [A-[Ala^7]CooP]
[II] KACGLSGLGVA-NH2 [KA-CooP]
Hi! Which is lower in terms of pKd, the first one I or the second one II ? I would appreciate it if you answered with the label of your choice. I
